test system: 407 cancer cell lines; assay: Cell viability of cancer cell lines (IC50), CellTiter-Glo Viability Assay, 96 h; type: cell-based; conditions: SW780 cells, 96 h; read-out: Absolute IC50
OBSERVED PROPERTY: IC50 (nM)
Just the number please, in nM, no unit attached.

Please supply the value of reported IC50 for the item N.N.[Cl][Pt][Cl] [Cisplatin, reference compound] 1980

* * *

test system: 407 cancer cell lines; experiment: Cell viability of cancer cell lines (IC50), CellTiter-Glo Viability Assay, 96 h; format: cell-based; settings: Raji cells, 96 h; read-out: Absolute IC50
OBSERVED PROPERTY: pIC50
By convention, pIC50 is the negative base-10 log of a molar concentration.

Name the recorded pIC50 of N.N.[Cl][Pt][Cl] [Cisplatin, reference compound] , assay system 407 cancer cell lines. 5.68

* * *

test system: 407 cancer cell lines; test: Cell viability of cancer cell lines (IC50), CellTiter-Glo Viability Assay, 96 h; assay type: cell-based; settings: OCUM-2M cells, 96 h; read-out: Absolute IC50
OBSERVED PROPERTY: IC50 (µM)
Just the number please, in µM, no unit attached.

Please supply the value of reported IC50 for the item N.N.[Cl][Pt][Cl] [Cisplatin, reference compound] 3.62

* * *

system: 407 cancer cell lines; test: Cell viability of cancer cell lines (IC50), CellTiter-Glo Viability Assay, 96 h; format: cell-based; conditions: MDA-MB-468 cells, 96 h; read-out: Absolute IC50
OBSERVED PROPERTY: IC50 (nM)
Just the number please, in nM, no unit attached.

Please supply the value of reported IC50 for the item N.N.[Cl][Pt][Cl] [Cisplatin, reference compound] 270

* * *

test system: 407 cancer cell lines; assay: Cell viability of cancer cell lines (IC50), CellTiter-Glo Viability Assay, 96 h; type: cell-based; conditions: SU-DHL-1; read-out: Absolute IC50
OBSERVED PROPERTY: pIC50
By convention, pIC50 is the negative base-10 log of a molar concentration.

Please supply the value of reported pIC50 for the item N.N.[Cl][Pt][Cl] [Cisplatin, reference compound] 6.55

* * *

test system: 407 cancer cell lines; test: Cell viability of cancer cell lines (IC50), CellTiter-Glo Viability Assay, 96 h; type: cell-based; conditions: Homo sapiens, NCI-H1838, 96 h, NCI-H1838 cells, 96 h; read-out: Absolute IC50
OBSERVED PROPERTY: IC50

Please supply the value of reported IC50 for the item "Cc1nn(-c2nc(-c3ccc(C(F)(F)F)cc3)c(SC(C)C)s2)c(C(=O)O)c1-c1cccc(F)c1" > 30 µM

* * *

system: 406 cancer cell lines, 73 blood tumor cell lines and 333 solid tumor cell lines; experiment: OmniScreen drug efficacy on cancer cell lines, fitted area under curve (AUC) of dose-response; format: cell-based; conditions: Homo sapiens, A204, A-204, Muscle
OBSERVED PROPERTY: IC50 (µM)
Just the number please, in µM, no unit attached.

Name the recorded IC50 of Cc1nn(-c2nc(-c3ccc(C(F)(F)F)cc3)c(SC(C)C)s2)c(C(=O)O)c1-c1cccc(F)c1 [Compound A197] , assay system 406 cancer cell lines, 73 blood tumor cell lines and 333 solid tumor cell lines. 184

* * *

test system: 407 cancer cell lines; assay: Cell viability of cancer cell lines (IC50), CellTiter-Glo Viability Assay, 96 h; format: cell-based; details: 96 h, RBE cells, 96 h; read-out: Absolute IC50
OBSERVED PROPERTY: pIC50
By convention, pIC50 is the negative base-10 log of a molar concentration.

Name the recorded pIC50 of "Cc1nn(-c2nc(-c3ccc(C(F)(F)F)cc3)c(SC(C)C)s2)c(C(=O)O)c1-c1cccc(F)c1" , assay system 407 cancer cell lines. 6.08

* * *

test system: LS 174T; experiment: Cell viability, CellTiter-Glo, 96 h: LS 174T; assay type: cell-based; settings: Cell No. 406, read-out: Absolute IC50
OBSERVED PROPERTY: IC50 (µM)
Just the number please, in µM, no unit attached.

Name the recorded IC50 of N.N.[Cl][Pt][Cl] [Cisplatin, reference compound] , assay system LS 174T. 5.89

* * *

test system: 407 cancer cell lines; assay: Cell viability of cancer cell lines (IC50), CellTiter-Glo Viability Assay, 96 h; type: cell-based; conditions: SCH cells, 96 h; read-out: Absolute IC50
OBSERVED PROPERTY: pIC50
By convention, pIC50 is the negative base-10 log of a molar concentration.

Please supply the value of reported pIC50 for the item N.N.[Cl][Pt][Cl] [Cisplatin, reference compound] 5.17

* * *

system: 407 cancer cell lines; experiment: Cell viability of cancer cell lines (IC50), CellTiter-Glo Viability Assay, 96 h; assay type: cell-based; details: Homo sapiens, COLO 205, 96 h; read-out: Absolute IC50
OBSERVED PROPERTY: pIC50
By convention, pIC50 is the negative base-10 log of a molar concentration.

Please supply the value of reported pIC50 for the item "Cc1nn(-c2nc(-c3ccc(C(F)(F)F)cc3)c(SC(C)C)s2)c(C(=O)O)c1-c1cccc(F)c1" 5.94

* * *

system: 407 cancer cell lines; assay: Cell viability of cancer cell lines (IC50), CellTiter-Glo Viability Assay, 96 h; assay type: cell-based; conditions: PANC-1; read-out: Absolute IC50
OBSERVED PROPERTY: IC50 (µM)
Just the number please, in µM, no unit attached.

Please supply the value of reported IC50 for the item N.N.[Cl][Pt][Cl] [Cisplatin, reference compound] 4.61

* * *

system: 407 cancer cell lines; test: Cell viability of cancer cell lines (IC50), CellTiter-Glo Viability Assay, 96 h; type: cell-based; details: DMS 79; read-out: Absolute IC50
OBSERVED PROPERTY: IC50 (nM)
Just the number please, in nM, no unit attached.

Please supply the value of reported IC50 for the item N.N.[Cl][Pt][Cl] [Cisplatin, reference compound] 810

* * *

system: 407 cancer cell lines; assay: Cell viability of cancer cell lines (IC50), CellTiter-Glo Viability Assay, 96 h; type: cell-based; conditions: JJN-3 cells, 96 h; read-out: Absolute IC50
OBSERVED PROPERTY: pIC50
By convention, pIC50 is the negative base-10 log of a molar concentration.

Please supply the value of reported pIC50 for the item N.N.[Cl][Pt][Cl] [Cisplatin, reference compound] 5.39

* * *

tested on: 407 cancer cell lines; assay: Cell viability of cancer cell lines (IC50), CellTiter-Glo Viability Assay, 96 h; type: cell-based; conditions: Homo sapiens, KYSE-410, 96 h, KYSE-410 cells, 96 h; read-out: Absolute IC50
OBSERVED PROPERTY: IC50

Please supply the value of reported IC50 for the item "Cc1nn(-c2nc(-c3ccc(C(F)(F)F)cc3)c(SC(C)C)s2)c(C(=O)O)c1-c1cccc(F)c1" > 301 µM

* * *

System: 407 cancer cell lines
Test: Cell viability of cancer cell lines (IC50), CellTiter-Glo Viability Assay, 96 h
Type: cell-based
Settings: OCUG-1; read-out: Absolute IC50
Experimental: Viability was determined by using the 50% inhibitory concentration (IC50) as determined with the CellTiter-Glo® Viability Assay (Promega). Experiments were initiated by first thawing and equilibrating the CellTiter-Glo® Buffer to room temperature. The lyophilized CellTiter-Glo® Substrate was also equilibrated to room temperature. […] Cells were harvested during the logarithmic growth period, counted, and the cell concentration adjusted to 4.44×10^4 cells/mL using culture medium. […]
OBSERVED PROPERTY: IC50
// return the numeric value with its unit appended

Please supply the value of reported IC50 for the item N.N.[Cl][Pt][Cl] [Cisplatin, reference compound] 16.3 µM

* * *

test: Pharmacokinetics in CD-1 mice, single oral dose compared to single intravenous dose; format: in vivo; settings: mouse, 0.5 mg/kg, Intravenous, 0.5 mpk, blood plasma
OBSERVED PROPERTY: Cmax (ng/mL)
Just the number please, in ng/mL, no unit attached.

Please supply the value of reported Cmax for the item "Cc1nn(-c2nc(-c3ccc(C(F)(F)F)cc3)c(SC(C)C)s2)c(C(=O)O)c1-c1cccc(F)c1" 2880

* * *

Test system: 407 cancer cell lines
Experiment: Cell viability of cancer cell lines (IC50), CellTiter-Glo Viability Assay, 96 h
Assay type: cell-based
Settings: Homo sapiens, SAOS-2, Saos-2; read-out: Absolute IC50
Method: Viability was determined by using the 50% inhibitory concentration (IC50) as determined with the CellTiter-Glo® Viability Assay (Promega). Experiments were initiated by first thawing and equilibrating the CellTiter-Glo® Buffer to room temperature. The lyophilized CellTiter-Glo® Substrate was also equilibrated to room temperature. […] Cells were harvested during the logarithmic growth period, counted, and the cell concentration adjusted to 4.44×10^4 cells/mL using culture medium. […]
OBSERVED PROPERTY: pIC50
By convention, pIC50 is the negative base-10 log of a molar concentration.

Please supply the value of reported pIC50 for the item "Cc1nn(-c2nc(-c3ccc(C(F)(F)F)cc3)c(SC(C)C)s2)c(C(=O)O)c1-c1cccc(F)c1" 6.09
